protocol-conditions: buffer; pH 7.4; 200.0 µM
Rule: 1 for solubility kinetic not less than 10 µg/mL, -1 for anything less.

Here are 5 compounds together with their reported answers.
[[record]]
compound = "Cc1ccc(S(=O)(=O)[O-])cc1.Cn1cc[n+](C)c1COc1ccc(C=O)cc1"
label_class = 1

[[record]]
compound = "COc1cccc(C(=O)NCCCNC(=O)c2ccco2)c1"
label_class = 1

[[record]]
compound = "Cc1ccc2c(C(=O)CN3CCN(C(=O)c4ccco4)CC3)c(C)[nH]c2c1"
label_class = 1

[[record]]
compound = "N#CCC(=O)Nc1ccc(C(=O)Nc2cccnc2)cc1"
label_class = 1

[[record]]
compound = "COc1ccc(NC(=O)N[C@@H](CCSC)C(=O)O)cc1OC"
label_class = 1


Given the entry O=C(O)C1CCC(CNS(=O)(=O)c2ccc(Cl)cc2)CC1 (configuration not stated) , answer whether its solubility kinetic meets or surpasses 10 µg/mL.
1

Given the entry `O=C(COC(=O)CCC(=O)c1cccs1)NC1CC1` , answer whether its solubility kinetic meets or surpasses 10 µg/mL.
1

Given the entry `C=CCOc1ccc(CNc2ccc3[nH]c(=O)[nH]c3c2)cc1` , answer whether its solubility kinetic meets or surpasses 10 µg/mL.
-1

Given the entry `C[N+](C)(C)c1ccccc1.[I-]` , answer whether its solubility kinetic meets or surpasses 10 µg/mL.
1

Given the entry `COc1ccc2c(c1)[nH]c1c(=O)n(Cc3ccncc3)cnc12` , answer whether its solubility kinetic meets or surpasses 10 µg/mL.
-1

Given the entry Cc1ccsc1C1C(C#N)=C(N)OC2=C1C(=O)CCC2 (configuration not stated) , answer whether its solubility kinetic meets or surpasses 10 µg/mL.
1

Given the entry COC(=O)C1(C(=O)O)Cc2cc([N+](=O)[O-])ccc2N2CCCC21 (configuration not stated) , answer whether its solubility kinetic meets or surpasses 10 µg/mL.
1

---

protocol-conditions: buffer; pH 7.4; 200.0 µM
value-kind: solubility kinetic (µg/mL)
Write the answer as a number in µg/mL, unit excluded.

Consider the compound COC(=O)C(O)(c1ccc(N(C)C)cc1)C(F)(F)F (stereo not given) and give its recorded solubility kinetic.
38

Consider the compound `COc1cc(NC(=O)c2ccc(S(=O)(=O)N(C)c3ccccc3)cc2)cc(OC)c1` and give its recorded solubility kinetic.
5

Consider the compound `CCc1ccc(S(=O)(=O)Nc2ccc(Cl)cn2)cc1` and give its recorded solubility kinetic.
8.3

Consider the compound O=C(NCC(c1ccc(F)cc1)N1CCOCC1)c1ccc(-c2ccccc2)cc1 (stereo not given) and give its recorded solubility kinetic.
3.2

Consider the compound `CCCN(CC(=O)Nc1ccccc1OC)C(=O)c1cc2ccccc2o1` and give its recorded solubility kinetic.
25.5

---

protocol-conditions: buffer; pH 7.4; 200.0 µM
value-kind: solubility kinetic (µg/mL)
Write the answer as a number in µg/mL, unit excluded.

Reference set, count: 10
[[record]]
compound = "Oc1ccc(Nc2nc(-c3ccccc3F)nc3ccccc23)cc1"
val = 1.4

[[record]]
compound = "CC(C)(C)NC(=O)C(=O)NC(=O)c1c(F)cccc1Cl"
val = 36.2

[[record]]
compound = "O=C(Nc1ccccc1N1CCCC1)c1ccccc1F"
val = 19.8

[[record]]
compound = "CC(=O)Nc1ccc(C(=O)NCC(c2ccco2)N(C)C)cc1 (centres undefined)"
val = 44.7

[[record]]
compound = "O=C(Nc1ccc(OC(F)(F)F)cc1)c1ccc2c(c1)no[n+]2[O-]"
val = 1.1

[[record]]
compound = "COc1ccc(Cl)cc1NC(=S)N1CCCCCC1"
val = 42.7

[[record]]
compound = "CN(C(=O)CSc1nc(-c2cccs2)nc2ccccc12)C1CCS(=O)(=O)C1 (centres undefined)"
val = 2.5

[[record]]
compound = "Cc1ccc(C)c(OCCCCN2CCCCC2)c1.O=C(O)C(=O)O"
val = 47.5

[[record]]
compound = "Cc1ccc(CONC(=O)c2ccc([N+](=O)[O-])cc2)cc1"
val = 2.1

[[record]]
compound = "Cc1ccc(Cc2cnc(NC(=O)C3=NCCN3)s2)cc1"
val = 11.5


Consider the compound `O=C(COC(=O)c1cncc(Br)c1)NC12CC3CC(CC(C3)C1)C2` and give its recorded solubility kinetic.
1.4

Consider the compound `O=C(Nc1ccc(Cl)cc1)Nc1ccon1` and give its recorded solubility kinetic.
26.7

---

Some molecules, each annotated with its measured solubility kinetic.
protocol-conditions: buffer; pH 7.4; 200.0 µM
Write the answer as a number in µg/mL, unit excluded.

Reference set, count: 6
[[record]]
molecule = "Fc1ccc(-c2csc(-c3cccnc3)n2)cc1F"
val = 0.7

[[record]]
molecule = "Cc1ccccc1C(=O)N1CCC(C(=O)Nc2nccs2)CC1"
val = 46.7

[[record]]
molecule = "Cc1cc(C)c[n+](CC(=O)c2ccccc2)c1.[Br-]"
val = 43.8

[[record]]
molecule = "C=CCC(=O)N1CCCC(C(=O)c2ccc(Cl)cc2)C1 (stereo not given)"
val = 42.5

[[record]]
molecule = "CC(=O)N/C(=N/c1nc(C)cc(C)n1)Nc1ccc(F)cc1F"
val = 1.6

[[record]]
molecule = "Cc1onc(-c2ccccc2Cl)c1C(O)c1ccc(F)cc1 (stereo not given)"
val = 46.6


Consider the molecule `c1ccc(CCNCCCOc2cccc3ccccc23)cc1` and give its recorded solubility kinetic.
37.1

Consider the molecule CCC1(c2ccc(F)cc2)NC(=O)NC1=O (stereo not given) and give its recorded solubility kinetic.
28.5

Consider the molecule `O=C(Cc1ccccc1)Nc1ccc2c(c1)OC1(CCCC1)O2` and give its recorded solubility kinetic.
16.4

Consider the molecule `CC(C)(C)NC(=O)CN(Cc1ccccc1)S(=O)(=O)c1ccccc1` and give its recorded solubility kinetic.
38.7

Consider the molecule `COc1ccc(CCC(=O)N2CCN(c3cccc(C)c3C)CC2)cc1` and give its recorded solubility kinetic.
17.3

Consider the molecule `O=S(=O)(c1ccc2c(c1)CCN2)N1CCCC1` and give its recorded solubility kinetic.
36.1

Consider the molecule `Cc1ccccc1OCC(=O)NCCCNC(=O)c1ccco1` and give its recorded solubility kinetic.
43.9

Consider the molecule `N#CCc1ccc(OC(=O)c2cnccc2C(F)(F)F)cc1` and give its recorded solubility kinetic.
13.6

Consider the molecule `Cc1cc(C(=O)NCc2ccco2)c2cc(F)ccc2n1` and give its recorded solubility kinetic.
42.3

---

Some compounds, each annotated with its measured solubility kinetic.
protocol-conditions: buffer; pH 7.4; 200.0 µM
Write the answer as a number in µg/mL, unit excluded.

[[record]]
compound = "O=C(COC(=O)c1ccc([N+](=O)[O-])s1)c1ccc[nH]1"
value_kind = "solubility kinetic"
val = 22.5

[[record]]
compound = "CCc1cc(=S)n2c([nH]c3ccccc32)c1C#N"
value_kind = "solubility kinetic"
val = 32.6

[[record]]
compound = "COc1ccc(C(=O)Nc2cccc(S(=O)(=O)N3CCCC3)c2)cc1S(=O)(=O)N1CCOCC1"
value_kind = "solubility kinetic"
val = 5.3


Consider the compound `Cc1ccc(SCC(=O)O/N=C(\N)c2cccnc2)cc1` and give its recorded solubility kinetic.
40

---

protocol-conditions: buffer; pH 7.4; 200.0 µM
value-kind: solubility kinetic (µg/mL)
Write the answer as a number in µg/mL, unit excluded.

[[record]]
molecule = "COc1cc(Cl)c(S(=O)(=O)N2CCCC2)cc1Cl"
unit_info = "µg/mL"
val = 42.1

[[record]]
molecule = "Cc1cc(S(=O)(=O)NCc2ccc(N3CCN(C)CC3)cc2)c(C)s1"
unit_info = "µg/mL"
val = 15.8

[[record]]
molecule = "CN(Cc1cccs1)C(=O)CSc1nc2ccccc2[nH]1"
unit_info = "µg/mL"
val = 45

[[record]]
molecule = "S=c1[nH]c2ccccc2n1Cc1ccccc1"
unit_info = "µg/mL"
val = 4.8

[[record]]
molecule = "CCNC(=O)NC1c2ccccc2CSc2ccccc21.O (stereo not given)"
unit_info = "µg/mL"
val = 8.8


Consider the record given below.
Consider the molecule `Cc1ccc(-c2noc(CCCC(=O)NC3CCCC3)n2)cc1` and give its recorded solubility kinetic.
44

---

protocol-conditions: buffer; pH 7.4; 200.0 µM
Consider the reported solubility kinetic of an entry and match it to a band in low class (below 7 µg/mL), middle class (7 µg/mL to below 20 µg/mL), high class (20 µg/mL or more)

[[record]]
compound = "CC(=O)NCc1ccc(C(=O)O)cc1"
label_class = "high class"


Pick a category. Item: CCC1(C)Cc2c(sc3nc(SC)[nH]c(=O)c23)CO1 (stereo not given)
middle class

Pick a category. Item: `CN(CCc1ccccn1)C(=S)Nc1ccc(Cl)cc1Cl`
high class

Pick a category. Item: CC(Nc1nc(-c2ccccc2F)nc2ccccc12)c1ccccc1 (stereo not given)
low class

Pick a category. Item: `O=C(COC(=O)/C=C/c1ccccc1[N+](=O)[O-])NC(=O)NC1CCCC1`
middle class

Pick a category. Item: `Cc1onc(-c2c(Cl)cccc2Cl)c1C(=O)O/N=C(\C#N)c1c(Cl)cccc1Cl`
high class
